cell viability: recorded values
Test system: P12-Ichikawa
Assay: cell viability relative to DMSO control; higher = less cytotoxic
Conditions: RPMI 5 mM glucose + 10% FBS; 48 h; 0.00702 µM

COMPOUND	cell viability (%)
CCOC(=O)c1cncn1[C@H](C)c1ccccc1	122
CC[C@@]1(O)C(=O)OC\C2=C1\C=C\3N(CC4=C3N=C5C=CC=CC5=C4)C2=O	116
O=C(O)/C=C/c1ccc(O)c(O)c1	111
c1ccc(CNc2nc(N3CCOc4ccccc43)nc3c2CCCC3)cc1	100
ClC1=CC\2=C(NC(=O)\C(=C2N[C@@H]3CN4CCC3CC4)C5=NC6=C([NH]5)C=CC=C6)C=C1	113
NC(=O)c1cccc2cn(-c3ccc([C@@H]4CCCNC4)cc3)nc12	96.8
CN1CCN2c3ncccc3Cc3ccccc3C2C1 (stereo not given)	124
Cn1c(=O)n(-c2ccc(C(C)(C)C#N)cc2)c2c3cc(-c4cnc5ccccc5c4)ccc3ncc21	106
CC(O)(C#Cc1ccc2c(c1)N(c1nc(N)ncc1Cl)CC2)c1nccs1 (stereo not given)	123
COc1ccc(C2Sc3ccccc3N(CCN(C)C)C(=O)C2OC(C)=O)cc1 (stereo not given)	110

###

Test system: P12-Ichikawa
Experiment: cell viability relative to DMSO control; higher = less cytotoxic
Details: RPMI 5 mM glucose + 10% dialyzed FBS; 48 h; 5.12 µM
cell viability: recorded values
READOUT NAME: cell viability (%)

MOLECULE	TEST VALUE
CC1(N2CCC(n3c([C@@H]4CCCNC4)nc4ccccc43)CC2)CCCCCCC1	109
Cc1cc(Nc2nc(N[C@@H](C)c3ccc(F)cc3)c(C#N)cc2F)n[nH]1	34.2
COc1ccc(C2Sc3ccccc3N(CCN(C)C)C(=O)C2OC(C)=O)cc1 (stereo not drawn)	104
C[C@]12CC[C@@H]3c4ccc(O)cc4CC[C@H]3[C@@H]1C[C@@H](O)[C@@H]2O	109
C[C@]12CC[C@H]3[C@@H](C\C=C/4C[C@@H](O)CC[C@]34C)[C@@H]1CCC2=O	99.1
CN[C@@H](C)C(=O)N[C@H]1CN(C(=O)CC(C)C)CC[C@H]2CC[C@@H](C(=O)NC(c3ccccc3)c3ccccc3)N2C1=O	97.8
Cc1cc(Nc2cc(CN3CCOCC3)c3nc(C)c(Cc4ccc(Cl)cc4F)n3n2)[nH]n1	95.8
CCC(=O)N[C@H]1CC[C@H](C(=O)N(C)c2ccc(-c3nc4ccccc4o3)cc2)C1	99

###

Tested on: SEM cells
Assay: AUC of viability dose-response curve (% viability x log10 dose units); higher = less sensitive
Conditions: RPMI 5 mM glucose + 10% dialyzed FBS; 48 h

COMPOUND	AUC of viability dose-response curve
OC(=O)C(CC/1=C/C(=O)NC2=CC=CC=C12)NC(=O)C3=CC=C(Cl)C=C3 (stereo not given)	470
N#Cc1ccnc(Nc2cc(C3CCN(C4COC4)CC3)cc(N3CCC(F)(F)C3)n2)c1	408
COc1cc2nc(N3CCN(C(=O)C4CCCO4)CC3)nc(N)c2cc1OC (stereo not given)	418
Cn1cc(/C=C2\C(=O)Nc3cccnc32)c2ccccc21	415
Cc1cc(C(=O)N2CCN(c3cccc(Cl)c3)CC2)n(-c2ccccc2)n1	357
CCCCCCOC(=O)/N=C(/N)c1ccc(NCc2nc3cc(C(=O)N(CCC(=O)OCC)c4ccccn4)ccc3n2C)cc1	475
CC(C)N(CC[C@H](c1ccccc1)c1cc(CO)ccc1O)C(C)C	461
COc1ccc(Nc2nccc(NCCO)n2)cc1	375
CC(C)c1ccc(Cn2ccc3c4c(N)nc(NC5CC5)nc4ccc32)cc1	390
NC(=O)c1cccc2nc(-c3ccc([C@H]4CCCN4)cc3F)[nH]c12	362
NC/1=N/C(=O)N(/C=C1F)[C@H]2CS[C@H](CO)O2	418
COc1ccc2c(c1)c(CC(=O)OCC(=O)O)c(C)n2C(=O)c1ccc(Cl)cc1	454
CN(C)c1nc(Cc2ccc(NC(=O)c3ccc4ccccc4c3)cc2)nc(Cl)c1CC(=O)O	455
CN1CCCC(CC1)N2\N=C(CC3=CC=C(Cl)C=C3)/C4=C(C=CC=C4)C2=O (stereo not given)	464
CC(=O)NCCC(=O)N[C@@H](CCC(N)=O)C(=O)N[C@@H](CO)C(=O)N[C@@H](CCC(N)=O)C(=O)N[C@@H](CCC(N)=O)C(=O)N[C@H](C(=O)N[C@@H](Cc1ccccc1)C(=O)N[C@]1(C)CCCCCC/C=C\CCC[C@@](C)(C(=O)N[C@@H](CCC(N)=O)C(=O)N[C@@H](CC(N)=O)C(N)=O)NC(=O)[C@H](CC(C)C)NC(=O)[C@H](CC(C)C)NC(=O)[C@@H](CCCNC(=N)N)NC(=O)[C@H](Cc2c[nH]c3ccccc23)NC(=O)[C@H](CC(C)C)NC(=O)[C@H](CC(N)=O)NC1=O)[C@H](C)O	346
Cc1cc2c(cc1C1(c3ccc(C(=O)O)cn3)CC1)C(C)(C)CCC2(C)C	407
Cc1[nH]c(/C=C2\C(=O)Nc3ccccc32)c(C)c1CCC(=O)O	236
COc1cc2nc(-c3cc(F)ccc3O)nc(N[C@@H]3CNC[C@H]3C(C)(C)O)c2cc1OC	227
Cc1cncc2cccc([S+](=O)([O-])N3CCCN(C(=O)CN)C[C@@H]3C)c12	392
COc1cccc([C@@H](C)NCCCc2ccccc2Cl)c1	472
C=CCc1cccc(/C=N/NC(=O)CN2CCN(Cc3ccccc3)CC2)c1O	378
ClC1=CC\2=C(OC3=C(C=CC=C3)\N=C2N4CCNCC4)C=C1	467
CC(=O)Nc1ccc(O)cc1	467
CC[C@]12\C=C/CN3CC[C@]4([C@@H](N(C)C5=CC(=C(C=C45)[C@]6(C[C@H]7C[C@H](CN(C7)CC8=C6[NH]C9=C8C=CC=C9)C(C)(F)F)C(=O)OC)OC)[C@](O)([C@@H]1OC(C)=O)C(=O)OC)[C@H]23	196
C[C@]12CC[C@H]3[C@@H](C\C=C/4C[C@@H](O)CC[C@]34C)[C@@H]1CCC2=O	462
C[C@]12CC[C@@H]3c4ccc(O)cc4CC[C@H]3[C@@H]1C[C@@H](O)[C@@H]2O	454
Cc1cccc(CN2CCN(C(c3ccccc3)c3ccc(Cl)cc3)CC2)c1 (stereo not given)	443
CN(C)CCOc1ccc(-c2nc(-c3ccncc3)c(-c3ccc4c(c3)CC/C4=N\O)[nH]2)cc1	466
CCCCC(C=O)NC(=O)C(CC(C)C)NC(=O)OCc1ccccc1 (stereo not given)	393
Cc1cc(Nc2cc(CN3CCOCC3)c3nc(C)c(Cc4ccc(Cl)cc4F)n3n2)[nH]n1	310

###

cell viability: recorded values
Test system: SEM cells
Experiment: cell viability relative to DMSO control; higher = less cytotoxic
Conditions: HPLM + 10% dialyzed FBS; 48 h; 0.000781 µM

MOLECULE	TARGET OF ASSAY	UOM	cell viability
COC1=C2C[C@@H](C)C[C@H](OC)[C@H](O)[C@@H](C)/C=C(\C)[C@H](OC(N)=O)[C@@H](OC)/C=C/C=C(\C)C(=O)NC(=CC1=O)C2=O	SEM cells	%	122
CN1c2ccccc2C(=O)N2CCc3c([nH]c4ccccc34)C21 (configuration not stated)	SEM cells	%	136
COc1ccc2[nH]c([S+]([O-])Cc3ncc(C)c(OC)c3C)nc2c1 (configuration not stated)	SEM cells	%	83.2
COc1ccc(C2Sc3ccccc3N(CCN(C)C)C(=O)C2OC(C)=O)cc1 (configuration not stated)	SEM cells	%	99.2
CO/C1=C/C(C)=C\[C@@H](C)[C@@H](O)[C@@H](C)C/C(C)=C\C=C/[C@H](OC)[C@@H]([C@@H](C)[C@@H](O)[C@H](C)[C@@]2(O)C[C@@H](O)[C@H](C)[C@@H](C(C)C)O2)OC1=O	SEM cells	%	91
CCO[C@@H]1OC(=O)C[C@@H]1NC(=O)[C@@H]1CCCN1C(=O)[C@@H](NC(=O)c1ccc(N)c(Cl)c1)C(C)(C)C	SEM cells	%	106
Cc1csc(NC(=O)c2sc3nc4c(c(C(F)(F)F)c3c2N)CCC4)n1	SEM cells	%	82
CN1\N=C(N)/C2=C[N]([C@@H]3O[C@H](CO[P](O)(O)=O)[C@@H](O)[C@H]3O)C4=C2C1=NC=N4	SEM cells	%	77.9
Cc1cc(Nc2cc(CN3CCOCC3)c3nc(C)c(Cc4ccc(Cl)cc4F)n3n2)[nH]n1	SEM cells	%	119
COC[C@H](c1ccc(C(F)(F)F)cc1)N1CCN(C2(C)CCN(C(=O)c3c(C)ncnc3C)CC2)C[C@H]1C.O=C(O)/C=C\C(=O)O	SEM cells	%	80.5
COc1ccc([C@@H]2CC(=O)c3c(O)cc(O[C@@H]4O[C@H](CO[C@@H]5O[C@@H](C)[C@H](O)[C@@H](O)[C@H]5O)[C@@H](O)[C@H](O)[C@H]4O)cc3O2)cc1O	SEM cells	%	99.2
CC[C@@]1(O)C(=O)OC\C2=C1\C=C\3N(CC4=C3N=C5C=CC=CC5=C4)C2=O	SEM cells	%	126
C[C@]12CC[C@@H]3c4ccc(O)cc4CC[C@H]3[C@@H]1C[C@@H](O)[C@@H]2O	SEM cells	%	105
O=C(O)CCn1c2c(c3ccccc31)C[C@H](N[S+](=O)([O-])c1ccc(F)cc1)CC2	SEM cells	%	112
COc1cc([C@H]2Oc3cc([C@H]4Oc5cc(O)cc(O)c5C(=O)[C@@H]4O)ccc3O[C@@H]2CO)ccc1O	SEM cells	%	63.6
COc1ccc(Nc2nccc(NCCO)n2)cc1	SEM cells	%	61.7
C[S+](=O)([O-])c1ccc(-c2cnc(N)c(C(=O)Nc3ccccc3)n2)cc1	SEM cells	%	99.6
CC/1=C(/C(CC(=O)N1)C2=CC=C(C=C2)C(F)(F)F)C(=O)NC3=C(F)C=C4[NH]N=CC4=C3 (configuration not stated)	SEM cells	%	81.9
CN(C)CC[C@H](c1ccc(Cl)cc1)c1ccccn1	SEM cells	%	70.8
O=C\1N(N\C=C1[N]2C=CN=N2)C3=NC=NC(=C3)N4CCOCC4	SEM cells	%	58.1
COc1cc2nc(N3CCN(C(=O)C4CCCO4)CC3)nc(N)c2cc1OC (configuration not stated)	SEM cells	%	74.1
CN(C)CCOc1ccc(-c2nc(-c3ccncc3)c(-c3ccc4c(c3)CC/C4=N\O)[nH]2)cc1	SEM cells	%	108
Oc1cccc(-c2nc(N3CCOCC3)c3oc4ncccc4c3n2)c1	SEM cells	%	108
CC(C)N(CC[C@H](c1ccccc1)c1cc(CO)ccc1O)C(C)C	SEM cells	%	106
Cn1cc(/C=C2\C(=O)Nc3cccnc32)c2ccccc21	SEM cells	%	90.8
NCCCCNCCCN	SEM cells	%	74.8
CN1CCC[C@@H]1CCO[C@](C)(c1ccccc1)c1ccc(Cl)cc1	SEM cells	%	85.8
NC(=O)c1cccc2cn(-c3ccc([C@@H]4CCCNC4)cc3)nc12	SEM cells	%	86.9
O=C(c1ccc(F)c(F)c1Nc1ccc(I)cc1F)N1CC(O)([C@@H]2CCCCN2)C1	SEM cells	%	75.2
C=CCc1cccc(/C=N/NC(=O)CN2CCN(Cc3ccccc3)CC2)c1O	SEM cells	%	124
Cc1cncc2cccc([S+](=O)([O-])N3CCCN(C(=O)CN)C[C@@H]3C)c12	SEM cells	%	94.8
NC(=O)C1CCCc2c1[nH]c1ccc(Cl)cc21 (configuration not stated)	SEM cells	%	115
